Measured inhibition accompanies every entry in the list below.
- SYSTEM_NAME: UniProtKB P28566
- Sequence (P28566 whole entry): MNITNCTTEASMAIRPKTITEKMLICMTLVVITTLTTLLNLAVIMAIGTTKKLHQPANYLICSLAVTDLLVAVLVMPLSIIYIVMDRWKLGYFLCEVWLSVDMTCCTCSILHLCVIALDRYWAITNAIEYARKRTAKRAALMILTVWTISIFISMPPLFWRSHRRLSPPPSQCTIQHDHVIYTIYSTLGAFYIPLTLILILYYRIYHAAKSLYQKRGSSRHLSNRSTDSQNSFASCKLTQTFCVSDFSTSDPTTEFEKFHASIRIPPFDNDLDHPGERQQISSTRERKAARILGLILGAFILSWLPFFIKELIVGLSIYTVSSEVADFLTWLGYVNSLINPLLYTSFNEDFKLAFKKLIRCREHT
- SETTINGS: Compound concentration 10 µM
- Description: PDSP Primary Binding target: HTR1E - Compounds are tested at 10 uM concentration, plate are incubated at room temperature in the dark for 90 minutes. Reaction are stopped by vacuum filtration onto 0.3% polyethyleneimine soaked filter mats using Filtermate harvester. Scintilation cocktail is then melted onto microwave-dried filters on a hot plate and the radio activity is counted in Microbia counter.
Report as a plain number; the unit % is understood.

# COMPOUND_SMILES, UNIT_ANNOTATION, inhibition
data = [
    ("CC1(C)SSC(C)(C)[C@@H](NC(=O)[C@@H](N)Cc2ccc(O)cc2)C(=O)NCC(=O)N[C@@H](Cc2ccccc2)C(=O)N[C@H]1C(=O)O", "%", 17.2),
]

Task: Could you share what inhibition was measured for O=C(O)CC1CCC2(CC1)CCN(c1cc(OC(F)(F)F)ccc1Cl)CC2 , tested on UniProtKB P28566?
Output: 16.8

Task: Then this compound: COc1ccccc1N1CCN(CCCCNC(=O)c2ccc3ccccc3c2)CC1
Output: 27.8

* * *

Reported inhibition values are given for each entry in this list.
- SYSTEM_NAME: Sodium-dependent dopamine transporter (Homo sapiens)
- SETTINGS: Compound concentration 10 µM
- Description: PDSP Primary Binding target: SLC6A3 - Compounds are tested at 10 uM concentration, plate are incubated at room temperature in the dark for 90 minutes. Reaction are stopped by vacuum filtration onto 0.3% polyethyleneimine soaked filter mats using Filtermate harvester. Scintilation cocktail is then melted onto microwave-dried filters on a hot plate and the radio activity is counted in Microbia counter.
Write the value in % as a bare number.

Recorded results for 2 compounds are shown here.
# COMPOUND, MEASUREMENT_LABEL, UNIT_ANNOTATION, VAL
data = [
    ("CC(C)[C@H](CO)Nc1nc(Nc2cccc(Cl)c2)c2ncn(C(C)C)c2n1", "inhibition", "%", 17.5),
    ("Cc1nnn(-c2ccc(-c3ccc(C4(C(=O)O)CC4)cc3)cc2)c1NC(=O)O[C@H](C)c1ccccc1", "inhibition", "%", 35),
]

Task: Endpoint output: inhibition of CN1CCCC(n2nc(Cc3ccc(Cl)cc3)c3ccccc3c2=O)CC1 (stereo not drawn) . Value?
Output: 25.9

Task: Further, for CNC[C@H](O)c1ccc(O)c(O)c1 ?
Output: 32.7

Task: Then this compound: COc1ccc(NC(=O)c2ccc(-c3ccc(-c4noc(C)n4)cc3C)cc2)cc1OCCN(C)C
Output: 86.1

Task: Repeat with OCc1cc(C(O)CNCCCCCCOCCCCc2ccccc2)ccc1O (stereo not drawn)
Output: 86.5

Task: Then what about the compound C[N+]1(C)[C@@H]2C[C@@H](OC(=O)C(O)(c3cccs3)c3cccs3)C[C@H]1[C@@H]1O[C@@H]12 ?
Output: -2.43

Task: Then what about the compound N#Cc1c(N)nc(SCC(N)=O)c(C#N)c1-c1ccc(OCC2CC2)cc1 ?
Output: 3.03

Task: How about this compound: Clc1cccc(Cl)c1NC1=NCCN1
Output: 20.8

Task: Next record, please: O=C(O)CC1CCC2(CC1)CCN(c1cc(OC(F)(F)F)ccc1Cl)CC2
Output: 7.81

Task: Follow-up entry: COc1ccc(NS(=O)(=O)c2sc3ccc(Cl)cc3c2C)cc1N1CCNCC1
Output: 63.1

Task: Another compound to check: O=C(c1cc2c(cc1F)OC(c1ccc(F)cc1)(c1ccc(Cl)cc1Cl)O2)N1CCOCC1 (stereo not drawn)
Output: 59

Task: Next entry: O=S1(=O)c2cccc3cccc(c23)N1CCCN1CCN(c2ccc(F)cc2)CC1
Output: 75.8

* * *

- SYSTEM_NAME: D(4) dopamine receptor (Homo sapiens) (UniProt P21917)
- Sequence (P21917 whole entry): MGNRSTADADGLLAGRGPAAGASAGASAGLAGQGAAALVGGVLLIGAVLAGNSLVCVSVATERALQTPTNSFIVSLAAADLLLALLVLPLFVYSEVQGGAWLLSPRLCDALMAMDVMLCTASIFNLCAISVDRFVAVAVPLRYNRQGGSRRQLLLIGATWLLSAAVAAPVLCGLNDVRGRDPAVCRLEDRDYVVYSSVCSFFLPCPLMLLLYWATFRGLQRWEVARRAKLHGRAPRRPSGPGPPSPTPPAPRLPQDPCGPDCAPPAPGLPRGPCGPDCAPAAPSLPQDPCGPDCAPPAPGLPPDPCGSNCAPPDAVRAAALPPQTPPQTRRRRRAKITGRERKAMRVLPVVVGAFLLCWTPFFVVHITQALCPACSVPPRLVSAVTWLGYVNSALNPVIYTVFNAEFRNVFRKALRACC
- SETTINGS: Compound concentration 10 µM; call rule not given here
Could you please pick one outcome from this set? active, inactive

Example entries begin here.
# COMPOUND, DISCRETE_LABEL
records = [
    ("Cc1ccc2c(c1)c1c(n2CCc2ccc(C)nc2)CCN(C)C1", "active"),
    ("COc1ccc(NS(=O)(=O)c2sc3ccc(Cl)cc3c2C)cc1N1CCNCC1", "inactive"),
]

Now consider a different compound.
Task: Query: recorded result category for NC[C@@H]1O[C@H](C23CC4CC(CC(C4)C2)C3)Cc2c1ccc(O)c2O in this test
Output: active
